# test system: KRAS G12V (Homo sapiens, UniProt P01116, G12V)
# Construct: K, N and HRAS G12V (full length) was cloned with Xho I and Bgl I to LgBit
# Sequence (P01116 1-188 isoform P01116-2 G12V): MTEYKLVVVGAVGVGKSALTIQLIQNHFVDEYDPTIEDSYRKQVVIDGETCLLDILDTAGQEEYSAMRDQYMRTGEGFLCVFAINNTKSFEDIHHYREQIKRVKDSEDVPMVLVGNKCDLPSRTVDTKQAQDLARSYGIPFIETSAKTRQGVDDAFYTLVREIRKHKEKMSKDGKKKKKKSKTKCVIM
# procedure summary: NanoBiT assay for RAS activation (KRAS G12V)
# condition details: Biochemical and cell based activity
experimental endpoint: IC50 (nM)

* COc1cc(OC)c2c(c1)O[C@@]1(c3ccc(C#N)cc3)[C@H](c3cccc(F)c3)C[C@H](NC(=O)N3CCOCC3)[C@@]21O | 19
* COc1cc(OC)c2c(c1)O[C@@]1(c3ccc(Cl)cc3)[C@H](c3cccc(F)c3)C[C@H](NC(=O)N3CCN(C)CC3)[C@@]21O (single isomer, unassigned) | 79
* COc1cc(OC)c2c(c1)O[C@@]1(c3ccc(C#N)cc3)[C@H](c3cccc(F)c3)C[C@H](NC(=O)N3CCC3)[C@@]21O | 24
* COc1cc(OC)c2c(c1)O[C@@]1(c3ccc(Cl)cc3)[C@H](c3cccc(F)c3)C[C@H](NC(=O)NCCO)[C@@]21O | 48

====

Quick reference for CLi Human among some molecules
# procedure summary: In vitro DMPK: CLi Human
# Format: in vitro ADME
experimental endpoint: CLi Human (µL/min/mg)

• COc1cc(OC)c2c(c1)O[C@@]1(c3ccc(Cl)cc3)[C@H](c3cccc(F)c3)C[C@H](NC(=O)N3CCN(C)CC3)[C@@]21O (single isomer, unassigned) = 5.5
• COc1cc(OC)c2c(c1)O[C@@]1(c3ccc(C#N)cc3)[C@H](c3cccc(F)c3)C[C@H](NC(=O)N3CCOCC3)[C@@]21O = 64
• COc1cc(OC)c2c(c1)O[C@@]1(c3ccc(Cl)cc3)[C@H](c3cccc(F)c3)C[C@H](NC(=O)NC(C)C)[C@@]21O (single isomer, unassigned) = 31
• COc1cc(OC)c2c(c1)OC1(c3ccc(Cl)cc3)[C@@H](c3cccc(F)c3)CC(NC(=O)N(C)C)C21O (single isomer, unassigned) [Compound C2, reference compound] = 290

====

Quick reference for pIC50 among some molecules
# test system: KRAS G12V (Homo sapiens, UniProt P01116, G12V)
# Construct: K, N and HRAS G12V (full length) was cloned with Xho I and Bgl I to LgBit
# procedure summary: NanoBiT assay for RAS activation (KRAS G12V)
# condition details: Biochemical and cell based activity
pIC50: −log10 of the molar value.
experimental endpoint: pIC50

• COc1cc(OC)c2c(c1)O[C@@]1(c3ccc(Cl)cc3)[C@H](c3cccc(F)c3)C[C@H](NC(=O)N3CCCC3)[C@@]21O (single isomer, unassigned) = 7.02
• CCN(CC)C(=O)N[C@H]1C[C@@H](c2cccc(F)c2)[C@]2(c3ccc(Cl)cc3)Oc3cc(OC)cc(OC)c3[C@]12O (single isomer, unassigned) = 7.03
• COc1cc(OC)c2c(c1)O[C@@]1(c3ccc(Cl)cc3)[C@H](c3cccc(F)c3)C[C@H](NC(=O)N3CCC(N(C)C)CC3)[C@@]21O = 7.01
• COc1cc(OC)c2c(c1)O[C@@]1(c3ccc(C#N)cc3)[C@H](c3cccc(F)c3)C[C@H](NC(=O)N3CCN(C)CC3)[C@@]21O = 7.68
• COc1cc(OC)c2c(c1)O[C@@]1(c3ccc(Cl)cc3)[C@H](c3cccc(F)c3)C[C@H](NC(=O)N3CCOCC3)[C@@]21O = 7.24
• COc1cc(OC)c2c(c1)O[C@@]1(c3ccc(Cl)cc3)[C@H](c3cccc(F)c3)C[C@H](NC(=O)N3CCS(=O)(=O)CC3)[C@@]21O = 7.49
• COc1cc(OC)c2c(c1)OC1(c3ccc(Cl)cc3)[C@@H](c3cccc(F)c3)CC(NC(=O)N(C)C)C21O (single isomer, unassigned) [Compound C2, reference compound] = 7.26
• COc1cc(OC)c2c(c1)O[C@@]1(c3ccc(Cl)cc3)[C@H](c3cccc(F)c3)C[C@H](NC(=O)N3CC4CCC(C3)N4C)[C@@]21O = 7.24
• COc1cc(OC)c2c(c1)O[C@@]1(c3ccc(Cl)cc3)[C@H](c3cccc(F)c3)C[C@H](NC(=O)NC(C)C)[C@@]21O (single isomer, unassigned) = 7.11
• COc1cc(OC)c2c(c1)O[C@@]1(c3ccc(Cl)cc3)[C@H](c3cccc(F)c3)C[C@H](NC(=O)N3CC(N(C)C)C3)[C@@]21O = 7.30
• COc1cc(OC)c2c(c1)O[C@@]1(c3ccc(C#N)cc3)[C@H](c3cccc(F)c3)C[C@H](NC(=O)N3CC4(COC4)C3)[C@@]21O = 7.39
